target of assay: T1, GST-human NOGO-A56 (human)
T1 construct: Expressed in E. coli BL21 from pGEX-6P1 and purified on glutathione-sepharose; the GST tag is part of the protein in the assays; also called GST-Nogo-A 5+6; GST Nogo-A 5 + 6
T1 sequence (chain, as listed by the source limits assumed): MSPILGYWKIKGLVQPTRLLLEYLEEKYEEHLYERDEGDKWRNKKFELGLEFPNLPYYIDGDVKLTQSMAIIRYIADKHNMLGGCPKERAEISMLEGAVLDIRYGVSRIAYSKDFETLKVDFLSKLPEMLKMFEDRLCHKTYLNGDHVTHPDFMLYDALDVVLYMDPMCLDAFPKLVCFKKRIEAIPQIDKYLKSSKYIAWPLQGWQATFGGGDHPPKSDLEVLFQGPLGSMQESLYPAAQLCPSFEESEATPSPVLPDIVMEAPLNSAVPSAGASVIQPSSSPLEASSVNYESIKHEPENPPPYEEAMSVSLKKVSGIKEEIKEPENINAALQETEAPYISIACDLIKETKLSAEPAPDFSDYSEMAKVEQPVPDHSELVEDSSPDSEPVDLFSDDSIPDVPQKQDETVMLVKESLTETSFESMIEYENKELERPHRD
assay overview: direct ELISA, GST-human NOGO-A56 coated at 1.0 mcg/ml, purified antibody, OD490
Reported EC50 (read off the curve) values are given for each entry in this list.
measurement name: EC50 (read off the curve)

binder	measurement name	reported result
H16L16 (antibody, human IgG1, kappa, V domains shown, IgG1 (L235A, G237A) / kappa; CAMPATH-1H signal (1-19) left out) VH: QVQLVQSGAEVKKPGASVKVSCKASGYTFTSYWMHWVKQRPGQGLEWIGNINPSNGGTNYNEKFKSKATLTVDKSTSTAYMELSSLRSEDTAVYYCELGQGYWGQGTLVTVSS VL: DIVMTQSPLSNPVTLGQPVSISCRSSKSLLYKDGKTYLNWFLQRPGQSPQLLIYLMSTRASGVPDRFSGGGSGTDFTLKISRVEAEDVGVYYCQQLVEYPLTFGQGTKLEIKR	EC50 (read off the curve)	~0.08 µg/mL
H20L16 (antibody, human IgG1, kappa, V domains shown, IgG1 (L235A, G237A) / kappa; CAMPATH-1H signal (1-19) left out) VH: QVQLVQSGAEVKKPGASVKVSCKASGYTFTSYWMHWVRQAPGQGLEWIGNINPSNGGTNYNEKFKSKATMTRDTSTSTAYMELSSLRSEDTAVYYCELGQGYWGQGTLVTVSS VL: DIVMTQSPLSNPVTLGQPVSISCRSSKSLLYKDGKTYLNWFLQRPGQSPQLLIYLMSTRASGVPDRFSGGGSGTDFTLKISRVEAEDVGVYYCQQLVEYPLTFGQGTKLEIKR	EC50 (read off the curve)	~0.1 µg/mL
H26L13 (antibody, human IgG1, kappa, V domains shown, H26 FL is H6 FL with G95M (Kabat); IgG1 (L235A, G237A) / kappa; CAMPATH-1H signal (1-19) left out; also called H6(G95M)L13; H6L13 with VH CDR3 MQGY) VH: QVQLVQSGAEVKKPGASVKVSCKASGYTFTSYWMHWVRQAPGQGLEWIGNINPSNGGTNYNEKFKSRATMTRDTSTSTAYMELSSLRSEDTAVYYCELMQGYWGQGTLVTVSS VL: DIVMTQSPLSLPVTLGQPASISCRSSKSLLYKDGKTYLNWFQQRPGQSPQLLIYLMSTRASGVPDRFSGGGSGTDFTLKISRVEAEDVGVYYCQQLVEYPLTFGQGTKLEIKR	EC50 (read off the curve)	~0.1 µg/mL
